molecular target: hERG potassium channel (Homo sapiens, UniProt Q12809); test: In vitro hERG potassium channel inhibition experiment (conventional patch clamp, HEK293 cell line stably expressing hERG); conditions: hERG Potassium Channel IC50 (nM), Table 8
Sequence (Q12809 whole entry): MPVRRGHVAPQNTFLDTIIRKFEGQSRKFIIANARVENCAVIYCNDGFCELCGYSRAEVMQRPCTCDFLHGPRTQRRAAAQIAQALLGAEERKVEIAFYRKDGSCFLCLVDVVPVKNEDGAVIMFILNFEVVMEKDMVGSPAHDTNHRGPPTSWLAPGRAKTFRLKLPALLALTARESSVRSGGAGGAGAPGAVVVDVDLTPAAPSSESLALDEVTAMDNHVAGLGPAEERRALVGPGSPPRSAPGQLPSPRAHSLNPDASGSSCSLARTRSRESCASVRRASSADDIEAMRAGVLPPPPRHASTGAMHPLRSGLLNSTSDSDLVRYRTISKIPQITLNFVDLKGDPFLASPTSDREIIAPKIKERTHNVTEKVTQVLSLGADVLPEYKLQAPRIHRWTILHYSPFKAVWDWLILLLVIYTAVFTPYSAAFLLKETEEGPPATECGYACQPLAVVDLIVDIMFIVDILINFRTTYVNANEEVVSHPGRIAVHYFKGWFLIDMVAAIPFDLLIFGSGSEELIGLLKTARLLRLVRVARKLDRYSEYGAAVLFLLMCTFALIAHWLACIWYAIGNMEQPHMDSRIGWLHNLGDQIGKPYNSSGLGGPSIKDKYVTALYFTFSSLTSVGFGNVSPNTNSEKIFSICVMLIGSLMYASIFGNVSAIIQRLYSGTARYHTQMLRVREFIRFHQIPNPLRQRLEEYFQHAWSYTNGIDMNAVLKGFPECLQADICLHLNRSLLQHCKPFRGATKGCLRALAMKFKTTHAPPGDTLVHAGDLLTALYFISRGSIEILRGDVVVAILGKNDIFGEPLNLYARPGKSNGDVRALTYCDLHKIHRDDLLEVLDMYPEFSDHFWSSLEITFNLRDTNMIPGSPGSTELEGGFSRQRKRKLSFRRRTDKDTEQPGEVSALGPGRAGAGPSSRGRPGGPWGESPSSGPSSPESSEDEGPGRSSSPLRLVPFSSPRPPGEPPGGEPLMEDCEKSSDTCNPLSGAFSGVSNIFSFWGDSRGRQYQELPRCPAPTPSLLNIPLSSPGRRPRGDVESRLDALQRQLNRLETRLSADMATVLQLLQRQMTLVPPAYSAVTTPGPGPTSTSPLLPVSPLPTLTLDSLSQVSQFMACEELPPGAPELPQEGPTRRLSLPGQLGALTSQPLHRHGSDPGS
metric: IC50 (nM)
Number only, in nM; omit the unit.

Observe how each entry below is paired with its result.
molecule	assay-system	IC50 / nM
O=C1c2cc(F)ccc2-c2ccc(N3CCN4CCC3CC4)cc21 [II-6]	hERG potassium channel (Homo sapiens, UniProt Q12809)	460
O=C1c2cc(N3CCN4CCC3CC4)ccc2-c2cccc(F)c21 [II-15]	hERG potassium channel (Homo sapiens, UniProt Q12809)	460
Nc1ccc2c(c1)C(=O)c1cc(N3CCN4CCC3CC4)ccc1-2 [II-5]	hERG potassium channel (Homo sapiens, UniProt Q12809)	2500

Turning now to a further molecule:
Given the entry Nc1cccc2c1C(=O)c1cc(N3CCN4CCC3CC4)ccc1-2 [II-14] , what IC50 was observed with hERG potassium channel (Homo sapiens, UniProt Q12809)?
49700
